Test: Decomposition of 2-bromo-benzenesulfonamidyl-alkylamino carbonates 2 (2BrPA release) in PBS, UV/vis or HPLC
Assay type: physicochemical
Conditions: PBS, pH 7.4, 37° C. in PBS (pH 7.4); determined by UV/vis (SEM ± 5%; n = 3); read-out: t1/2 (converted)
measureName: half-life

// sample CC(C)NCCOC(=O)ONS(=O)(=O)c1ccccc1Br , its half-life was 47 s

----------
Test: Decomposition of 2-bromo-benzenesulfonamidyl-alkylamino carbonates 2 (2BrPA release) in PBS, UV/vis or HPLC
Type: physicochemical
Conditions: PBS, pH 7.4, 37° C. in PBS (pH 7.4); determined by HPLC (SEM ± 5%; n = 3); read-out: t1/2 (converted)
measureName: half-life (min)
Write it as a number; the unit min goes unstated.

// sample CC(C)(C)NCCOC(=O)ONS(=O)(=O)c1ccccc1Br , its half-life was 47
